Molecular target: PDE10A enzyme (Homo sapiens (Human), UniProt Q9Y233)
Sequence (Q9Y233 716-1055): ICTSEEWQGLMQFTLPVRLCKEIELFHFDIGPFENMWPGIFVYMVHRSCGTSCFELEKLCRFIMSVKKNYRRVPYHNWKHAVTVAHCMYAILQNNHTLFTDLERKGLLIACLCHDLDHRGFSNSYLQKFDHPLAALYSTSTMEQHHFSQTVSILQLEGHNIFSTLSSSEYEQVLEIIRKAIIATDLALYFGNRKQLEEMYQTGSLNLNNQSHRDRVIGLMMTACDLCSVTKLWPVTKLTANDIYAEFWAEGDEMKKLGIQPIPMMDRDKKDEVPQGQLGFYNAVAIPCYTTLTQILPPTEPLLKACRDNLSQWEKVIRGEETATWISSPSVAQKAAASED
Measurement label: IC50 (nM)

Solved entries (count: 3):
1. Cc1ncc(C)n2nc(CCc3cn4c(n3)-c3cc(F)ccc3C4)nc12: 3.1
2. Cc1c[n+]([O-])c(C)c2nc(CCc3cn4c(n3)-c3ccccc3C4)nn12: 2.4
3. Cc1ncc(C)n2nc(CCc3cn4c(n3)-c3cccc(F)c3C4)nc12: 1.2

I. Cc1ncc(C)n2nc(CCc3cn4c(n3)-c3c(F)cccc3C4)nc12
II. Cc1ncc(C)n2nc(CCc3cn4c(n3)-c3cccnc3C4)nc12
III. Cc1cnc(CO)c2nc(CCc3cn4c(n3)-c3ccccc3C4)nn12
Ask | Arrange these 3 compounds in increasing order of IC50. # the answer lists labels in the order requested
Reply | I, II, III
(I: 0.79 nM, II: 3.8 nM, III: 6.9 nM)

P. Cc1ccc(C)n2nc(CCc3cn4c(n3)-c3ccccc3C4)nc12
Q. Cc1cccc2nc(CCc3cn4c(n3)-c3ccccc3C4)nn12
Ask | Just curious, which one has the larger IC50 reading, P or Q ? I would appreciate it if you answered with the label of your choice.
Reply | Q
(Q: 6.1 nM, P: 0.69 nM)

P. COc1ccc2c(c1)Cn1cc(CCc3nc4c(C)ncc(C)n4n3)nc1-2
Q. Cc1ncc(C)n2nc(CCc3cn4c(n3)-c3ccccc3C4C(C)(C)O)nc12 (stereo not shown)
Ask | Just curious, which one has the larger IC50 reading, P or Q ? I would appreciate it if you answered with the label of your choice.
Reply | Q
(Q: 21 nM, P: 0.29 nM)
